Listing of recorded ELISA signal with Free Fc 62.5 pmol by entry.
experimental-system: T1, biotin-labeled human CD137 fused to human IgG1 Fc fragment (human CD137-Fc) (human, biotin-labeled)
T1 construct: also called biotin-human CD137-Fc
protocol-text: competitive bead ELISA, biotin-human CD137-Fc on beads, 100 ng IgG, control competitor free human Fc 62.5 pmol
Please give the numeric answer without any surrounding text.

Record excerpt, results attached:
binder | observed
DADU01_3#002 (antibody, human IgG1, V domains shown, also called dBBDu124) VH: QVQLVESGGGLVQPGRSLRLSCAASGFTFSNAWMHWVRQAPGKGLEWVAQIKDKQNLYNAYYAESVKGRFTISRDDSKNSIYLQMNSLKTEDTAVYYCHYVHYASASTVLPAFGVDAWGQGTTVTVSS VL: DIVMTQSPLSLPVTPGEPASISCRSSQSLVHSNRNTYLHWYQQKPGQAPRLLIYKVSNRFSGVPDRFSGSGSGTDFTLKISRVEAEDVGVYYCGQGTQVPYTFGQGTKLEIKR | 155000
DXDU01_3#019 (antibody, human IgG1, V domains shown, also called dBBDu125) VH: QVQLVESGGGLVQPGRSLRLSCAASGFTFSIAWMHWVRQAPGKGLEWVAQIKDKVNGYTAYYAESVKGRFTISRDDSKNSIYLQMNSLKTEDTAVYYCRYVHYAAYYDVLGYGGVDAWGQGTTVTVSS VL: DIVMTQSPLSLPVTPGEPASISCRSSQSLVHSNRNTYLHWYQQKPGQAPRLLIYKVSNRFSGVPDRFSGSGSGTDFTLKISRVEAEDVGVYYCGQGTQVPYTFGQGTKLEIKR | 172000
DADU01_3#018 (antibody, human IgG1, V domains shown, also called dBBDu123) VH: QVQLVESGGGLVQPGRSLRLSCAASGFTFSNAWMHWVRQAPGKGLEWVAQIKDRANSYNAYYAPSVKGRFTISRDDSKNSIYLQMNSLKTEDTAVYYCHYVHYSAASTLLPSFGVDAWGQGTTVTVSS VL: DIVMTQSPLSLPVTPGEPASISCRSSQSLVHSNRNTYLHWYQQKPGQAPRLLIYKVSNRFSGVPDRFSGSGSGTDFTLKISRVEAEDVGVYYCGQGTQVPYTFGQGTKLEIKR | 117000
anti-human CD137 antibody described in WO2005/035584A1 (abbreviated as B) (antibody, V domains shown, Control antibody; also called control anti-CD137 antibody) VH: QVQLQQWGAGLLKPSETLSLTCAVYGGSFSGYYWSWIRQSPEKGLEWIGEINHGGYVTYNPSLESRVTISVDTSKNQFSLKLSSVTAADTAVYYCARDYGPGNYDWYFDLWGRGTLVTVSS VL: EIVLTQSPATLSLSPGERATLSCRASQSVSSYLAWYQQKPGQAPRLLIYDASNRATGIPARFSGSGSGTDFTLTISSLEPEDFAVYYCQQRSNWPPALTFGGGTKVEIK | 184000
DXDU01_3#094 (antibody, human IgG1, V domains shown, also called dBBDu121) VH: QVQLVESGGGLVQPGRSLRLSCAASGFTFSNAWMHWVRQAPGKGLEWVAQIKDKGNAYAAYYAPSVKGRFTISRDDSKNSIYLQMNSLKTEDTAVYYCHYVHYASAAGGLPGFGVDAWGQGTTVTVSS VL: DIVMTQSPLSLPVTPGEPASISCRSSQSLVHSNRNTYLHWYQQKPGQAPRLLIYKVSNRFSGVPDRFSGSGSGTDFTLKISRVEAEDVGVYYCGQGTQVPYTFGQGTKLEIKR | 108000

Consider now this further binder.
In: Param item = DXDU01_3#051 (antibody, human IgG1, V domains shown, also called dBBDu127) VH: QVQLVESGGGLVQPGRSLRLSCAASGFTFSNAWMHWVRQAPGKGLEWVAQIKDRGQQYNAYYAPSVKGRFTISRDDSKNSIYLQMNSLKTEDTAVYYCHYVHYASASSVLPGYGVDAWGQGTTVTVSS VL: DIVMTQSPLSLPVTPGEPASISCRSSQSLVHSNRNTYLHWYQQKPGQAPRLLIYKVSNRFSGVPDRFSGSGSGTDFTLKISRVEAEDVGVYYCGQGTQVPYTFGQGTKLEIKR ; retrieve measured ELISA signal with Free Fc 62.5 pmol.
Out: 128000
